Measured Fold IC50 increase relative to wild-type by item
# target under test: HIV-1 JR-CSF Env T388A (HIV-1 (isolate JR-CSF)) (UniProt P20871)
# test: cell-based or functional assay
I only need the number, in fold, no unit after it.

The examples below pair each entry with its known result.
>>> experimental_value("PGT-127 (antibody, V domains shown) VH: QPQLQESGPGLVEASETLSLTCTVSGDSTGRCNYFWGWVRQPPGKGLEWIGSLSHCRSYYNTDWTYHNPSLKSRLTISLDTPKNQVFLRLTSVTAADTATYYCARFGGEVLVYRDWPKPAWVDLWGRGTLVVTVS VL: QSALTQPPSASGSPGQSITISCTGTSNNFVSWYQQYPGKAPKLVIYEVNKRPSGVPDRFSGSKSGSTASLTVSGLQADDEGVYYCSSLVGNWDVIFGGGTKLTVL")
0.5
>>> experimental_value("PGT-123 (antibody, V domains shown) VH: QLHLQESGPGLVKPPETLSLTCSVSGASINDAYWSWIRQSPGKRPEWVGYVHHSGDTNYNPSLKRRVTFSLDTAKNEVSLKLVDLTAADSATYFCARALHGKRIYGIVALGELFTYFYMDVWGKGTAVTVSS VL: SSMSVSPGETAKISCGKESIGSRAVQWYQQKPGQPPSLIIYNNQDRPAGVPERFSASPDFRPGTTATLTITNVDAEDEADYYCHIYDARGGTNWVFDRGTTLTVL")
0.2

Now look at this entry.
Give recorded Fold IC50 increase relative to wild-type. PGT-135 (antibody, V domains shown) VH: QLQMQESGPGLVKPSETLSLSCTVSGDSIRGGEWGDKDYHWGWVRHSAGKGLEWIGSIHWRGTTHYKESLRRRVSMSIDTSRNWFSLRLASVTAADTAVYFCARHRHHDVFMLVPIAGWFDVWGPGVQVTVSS VL: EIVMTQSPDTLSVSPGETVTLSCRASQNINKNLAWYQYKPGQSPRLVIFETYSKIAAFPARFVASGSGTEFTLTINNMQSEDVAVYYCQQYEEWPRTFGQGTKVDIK
0.1
